- assay: Caco-2 cell permeability assay (A-B and B-A)
- Assay type: in vitro ADME
- cond: human, A-B direction
The entries below are paired with their reported Papp A→B at 60 min, 10 μM.

CC[C@@H](NC(=O)N1C(=O)[C@H](Cc2ccnc(N)c2)[C@H]1C(=O)N(C)c1ccncc1)c1ccccc1 | ≤ 10 ×10⁻⁶ cm/s
CC[C@H](c1cccc(Cl)c1)N(C)C(=O)N1C(=O)[C@H](Cc2ccnc(N)c2)[C@H]1C(=O)N(C)c1ccncc1 | ≤ 10 ×10⁻⁶ cm/s
CN(C(=O)[C@@H]1[C@@H](Cc2ccnc(N)c2)C(=O)N1C(=O)N[C@@H](C1CCCCC1)C1CC1)c1ccccc1 | 31 to 50 ×10⁻⁶ cm/s
CC[C@@H](NC(=O)N1C(=O)[C@H](Cc2ccnc(N)c2)[C@H]1C(=O)N(C)c1ncccn1)C1CCCCC1 | 11 to 30 ×10⁻⁶ cm/s

Request: Need Papp A→B at 60 min, 10 μM of CN(C(=O)[C@@H]1[C@@H](Cc2ccnc(N)c2)C(=O)N1C(=O)N[C@@H](C1CCCCC1)C(F)(F)F)c1ncccn1 , thanks.
Result: 11 to 30 ×10⁻⁶ cm/s

Request: Again, but for CN(C(=O)[C@@H]1[C@@H](Cc2ccnc(N)c2)C(=O)N1C(=O)N[C@@H](C1CC1)C(F)(F)F)c1ccncc1
Result: ≤ 10 ×10⁻⁶ cm/s

Request: Moving on to the next compound: CC[C@@H](NC(=O)N1C(=O)[C@H](Cc2ccnc(N)c2)[C@H]1C(=O)N(C)c1ccccc1)C1CC1
Result: 11 to 30 ×10⁻⁶ cm/s

* * *

half-life at 2 μM values by entry
- assay: Metabolic stability in dog hepatocytes
- Format: in vitro ADME
- cond: pooled cryopreserved hepatocytes; beagle dog hepatocytes, 2 μM compound, 500,000 cells/mL, 37° C.; read-out: Dog Hepatocyte Stability (T½: min)

CC[C@@H](NC(=O)N1C(=O)[C@H](Cc2ccnc(N)c2)[C@H]1C(=O)N(C)c1ncncn1)c1ccccc1 | < 1 h
CC[C@@H](NC(=O)N1C(=O)[C@H](Cc2ccnc(N)c2)[C@H]1C(=O)N(C)c1ccccc1)c1cccnc1 | 2.02 to 4 h
CC[C@@H](NC(=O)N1C(=O)[C@H](Cc2ccnc(NC(=O)OC(C)(C)C)c2)[C@H]1C(=O)N(C)c1ccncc1)c1cccc(Cl)c1 | < 1 h
CC[C@@H](NC(=O)N1C(=O)[C@H](Cc2ccnc(N)c2)[C@H]1C(=O)N(C)c1ccncc1)c1ccccc1 | 2.02 to 4 h
CN(C(=O)[C@@H]1[C@@H](Cc2ccnc(N)c2)C(=O)N1C(=O)N[C@@H](C1CCCCC1)C(F)(F)F)c1ncccn1 | < 1 h

Request: GET /values?readout=half-life at 2 μM&item= CC[C@@H](NC(=O)N1C(=O)[C@H](Cc2ccnc(N)c2)[C@H]1C(=O)N(CC)c1ncccn1)C1CCCCC1
Result: < 1 h

Request: Also check CC[C@@H](NC(=O)N1C(=O)[C@H](Cc2ccnc(N)c2)[C@H]1C(=O)N(C)c1ccncc1)c1ccc(Cl)cc1
Result: > 4 h

* * *

half-life at 2 μM overview
- assay: Metabolic stability in dog hepatocytes
- Assay type: in vitro ADME
- cond: pooled cryopreserved hepatocytes; beagle dog hepatocytes, 2 μM compound, 500,000 cells/mL, 37° C.; read-out: Dog Hepatocyte Stability (T½: min)

Example cases with answers are listed next.
CCC[C@@H](NC(=O)N1C(=O)[C@H](Cc2ccnc(N)c2)[C@H]1C(=O)N(C)c1ccccc1)C1CCCCC1 | 1.02 to 2 h
CC[C@@H](NC(=O)N1C(=O)[C@H](Cc2ccnc(N)c2)[C@H]1C(=O)N(C)c1ncccn1)c1ccccc1 | 1.02 to 2 h
CC[C@@H](NC(=O)N1C(=O)[C@H](Cc2ccnc(N)c2)[C@H]1C(=O)N(C)c1ncccn1)c1cccc(Cl)c1 | < 1 h
CC[C@@H](NC(=O)N1C(=O)[C@H](Cc2ccnc(N)c2)[C@H]1C(=O)N(C)c1ccccc1)C1CCCCC1 | 2.02 to 4 h

Request: # half-life at 2 μM lookup, item CC[C@@H](NC(=O)N1C(=O)[C@H](Cc2ccnc(N)c2)[C@H]1C(=O)N(C)c1ccncc1)c1cccnc1
Result: > 4 h

Request: Similarly, CC[C@@H](NC(=O)N1C(=O)[C@H](Cc2cc(C)nc(N)c2)[C@H]1C(=O)N(C)c1ccccc1)C1CCCCC1 ?
Result: 1.02 to 2 h

Request: Now the compound CC[C@@H](NC(=O)N1C(=O)[C@H](Cc2ccnc(N)c2)[C@H]1C(=O)N(C)c1ncccn1)c1cccnc1
Result: 2.02 to 4 h

Hello, the source for this data is patent US20190315711A1, in case you need it.
